- System Under Test: Histone-lysine N-methyltransferase EHMT2 (Homo sapiens)
- Measurement Protocol: qHTS Assay for Inhibitors of Histone Lysine Methyltransferase G9a; further: on the % scale 0 is the no-effect control and ±100 the full control effect; nearly all actives have a fitted effect of over 75% in size
- Measurement Context: G9a H3K9 monomethylation, AlphaScreen, 2 h; series mostly up to 59 µM
Screen size: about 350,000 compounds; about 31,000 (8.9%) were called active. Not shown: some 15% with an inconclusive outcome. The entries come from a sample that favours actives as a whole.
For each record, write down the corresponding activity, negative = inhibition.

For the molecule "Cc1ccc(S(=O)(=O)N(Cc2cccc([N+](=O)[O-])c2)C(=O)N2CCN(C)CC2)cc1" , the measured activity, negative = inhibition on Histone-lysine N-methyltransferase EHMT2 (Homo sapiens) was 6.51% [at 2.33 µM] (inactive)

For the molecule Cc1ccc(CN2CC(C(=O)NNC(=O)Cn3ccc(C(F)(F)F)n3)CC2=O)cc1 (configuration not stated) , the measured activity, negative = inhibition on Histone-lysine N-methyltransferase EHMT2 (Homo sapiens) was -2.67% [at 12.7 µM] (inactive)

For the molecule "CN(C(=O)COC(=O)c1cc(=O)[nH]c2ccccc12)C1CCCCC1" , the measured activity, negative = inhibition on Histone-lysine N-methyltransferase EHMT2 (Homo sapiens) was -20.6% [at 2.33 µM] (inactive)

For the molecule "CN(C)/C=C1/C(=O)Nc2ccccc21" , the measured activity, negative = inhibition on Histone-lysine N-methyltransferase EHMT2 (Homo sapiens) was -2.73% [at 12.7 µM] (inactive)

For the molecule "CC(=O)Nc1cccc(NC(=O)c2c(-c3ccccc3)noc2C)c1" , the measured activity, negative = inhibition on Histone-lysine N-methyltransferase EHMT2 (Homo sapiens) was 10.1% [at 12.7 µM] (inactive)

For the molecule "O=C(Nc1ccccc1)Nc1ccccc1C(=O)NCc1ccco1" , the measured activity, negative = inhibition on Histone-lysine N-methyltransferase EHMT2 (Homo sapiens) was 0.665% [at 12.7 µM] (inactive)

For the molecule CC(C(=O)N(C)CC(=O)Nc1ccccc1C(F)(F)F)N1C(=O)c2ccccc2C1=O (configuration not stated) , the measured activity, negative = inhibition on Histone-lysine N-methyltransferase EHMT2 (Homo sapiens) was 8.77% [at 12.7 µM] (inactive)

For the molecule "c1nc(COc2nsnc2N2CCOCC2)cs1" , the measured activity, negative = inhibition on Histone-lysine N-methyltransferase EHMT2 (Homo sapiens) was 15.5% [at 2.33 µM] (inactive)

For the molecule "c1cncc(-c2nc(N3CCNCC3)c3ccccc3n2)c1" , the measured activity, negative = inhibition on Histone-lysine N-methyltransferase EHMT2 (Homo sapiens) was 8.14% [at 0.501 µM] (inactive)

For the molecule "CCOc1cc2[nH]c(=S)n(CCCN3CCCC3=O)c(=O)c2cc1OCC" , the measured activity, negative = inhibition on Histone-lysine N-methyltransferase EHMT2 (Homo sapiens) was -45.8% [at 12.7 µM] (inactive)

For the molecule "COc1ccc(C(=O)NCc2ccc(C)cc2)cc1S(=O)(=O)N1CCCC1" , the measured activity, negative = inhibition on Histone-lysine N-methyltransferase EHMT2 (Homo sapiens) was -16.6% [at 0.0925 µM] (inactive)

For the molecule "CCCCN(C(=O)c1nn(C)c(=O)c2ccccc12)c1c(N)n(CCC)c(=O)[nH]c1=O" , the measured activity, negative = inhibition on Histone-lysine N-methyltransferase EHMT2 (Homo sapiens) was -30.6% [at 12.7 µM] (inactive)

For the molecule CCN(C(=O)CSc1ncnc2c1cnn2-c1ccccc1)C1CCS(=O)(=O)C1 (configuration not stated) , the measured activity, negative = inhibition on Histone-lysine N-methyltransferase EHMT2 (Homo sapiens) was 7.57% [at 0.501 µM] (inactive)

For the molecule "COc1cc(N=Cc2c(O)c3ccccc3oc2=O)c(OC)cc1Cl" , the measured activity, negative = inhibition on Histone-lysine N-methyltransferase EHMT2 (Homo sapiens) was 16.1% [at 0.501 µM] (inactive)

For the molecule "CC(=O)NC12CC3CC(C1)CC(C(=O)N1CCN(S(=O)(=O)c4cccs4)CC1)(C3)C2" , the measured activity, negative = inhibition on Histone-lysine N-methyltransferase EHMT2 (Homo sapiens) was 5.2% [at 12.7 µM] (inactive)

For the molecule C#CCOCCOCCOCCNc1nc(N2CCN(C(=O)[C@H](CCCCN)n3cc(CCC(=O)O)nn3)CC2)nc(N2CCN(C(=O)[C@H](CCCCN)n3cc(CC(C)O)nn3)CC2)n1 (some centres not stated) , the measured activity, negative = inhibition on Histone-lysine N-methyltransferase EHMT2 (Homo sapiens) was -23.5% [at 2.33 µM] (inactive)

For the molecule CSCCC(NC(=O)c1ccccc1)C(=O)N1CCN(Cc2ccc(Cl)cc2)CC1 (configuration not stated) , the measured activity, negative = inhibition on Histone-lysine N-methyltransferase EHMT2 (Homo sapiens) was 10.6% [at 0.501 µM] (inactive)

For the molecule "COc1ccc(C(=O)N(Cc2ccccc2)c2ccc(C)cc2)cc1S(=O)(=O)N1CCOCC1" , the measured activity, negative = inhibition on Histone-lysine N-methyltransferase EHMT2 (Homo sapiens) was 8.07% [at 0.501 µM] (inactive)

For the molecule "O=C1/C(=C/c2coc3ccc(O)cc3c2=O)SC(=S)N1c1ccccc1" , the measured activity, negative = inhibition on Histone-lysine N-methyltransferase EHMT2 (Homo sapiens) was -31.3% [at 12.7 µM] (inactive)

For the molecule "CSc1ccccc1C(=O)OCC(=O)N1CCN(C(C)=O)CC1" , the measured activity, negative = inhibition on Histone-lysine N-methyltransferase EHMT2 (Homo sapiens) was -3.84% [at 12.7 µM] (inactive)

For the molecule "Cc1ccc(CC(=O)N(C)CC(=O)N(CC(C)C)c2c(N)n(CC(C)C)c(=O)[nH]c2=O)cc1C" , the measured activity, negative = inhibition on Histone-lysine N-methyltransferase EHMT2 (Homo sapiens) was 10.8% [at 2.33 µM] (inactive)

For the molecule "CN(C)c1ccnc2sc3c(=O)n(Cc4ccccc4)cnc3c12" , the measured activity, negative = inhibition on Histone-lysine N-methyltransferase EHMT2 (Homo sapiens) was 26.4% [at 0.501 µM] (inactive)
